Recorded Ki p110 alpha/ Ki p110 delta values for a group of compounds are listed next.
target: p110 alpha (Homo sapiens); construct: purchased Upstate Group, Millipore; Dundee, UK; test: PI3K isoform inhibition assay (fluorescence polarization), p110 alpha; type: biochemical; conditions: delta/alpha selectivity ratio
Sequence (P42336 whole entry, species assumed, one chain of several, canonical isoform): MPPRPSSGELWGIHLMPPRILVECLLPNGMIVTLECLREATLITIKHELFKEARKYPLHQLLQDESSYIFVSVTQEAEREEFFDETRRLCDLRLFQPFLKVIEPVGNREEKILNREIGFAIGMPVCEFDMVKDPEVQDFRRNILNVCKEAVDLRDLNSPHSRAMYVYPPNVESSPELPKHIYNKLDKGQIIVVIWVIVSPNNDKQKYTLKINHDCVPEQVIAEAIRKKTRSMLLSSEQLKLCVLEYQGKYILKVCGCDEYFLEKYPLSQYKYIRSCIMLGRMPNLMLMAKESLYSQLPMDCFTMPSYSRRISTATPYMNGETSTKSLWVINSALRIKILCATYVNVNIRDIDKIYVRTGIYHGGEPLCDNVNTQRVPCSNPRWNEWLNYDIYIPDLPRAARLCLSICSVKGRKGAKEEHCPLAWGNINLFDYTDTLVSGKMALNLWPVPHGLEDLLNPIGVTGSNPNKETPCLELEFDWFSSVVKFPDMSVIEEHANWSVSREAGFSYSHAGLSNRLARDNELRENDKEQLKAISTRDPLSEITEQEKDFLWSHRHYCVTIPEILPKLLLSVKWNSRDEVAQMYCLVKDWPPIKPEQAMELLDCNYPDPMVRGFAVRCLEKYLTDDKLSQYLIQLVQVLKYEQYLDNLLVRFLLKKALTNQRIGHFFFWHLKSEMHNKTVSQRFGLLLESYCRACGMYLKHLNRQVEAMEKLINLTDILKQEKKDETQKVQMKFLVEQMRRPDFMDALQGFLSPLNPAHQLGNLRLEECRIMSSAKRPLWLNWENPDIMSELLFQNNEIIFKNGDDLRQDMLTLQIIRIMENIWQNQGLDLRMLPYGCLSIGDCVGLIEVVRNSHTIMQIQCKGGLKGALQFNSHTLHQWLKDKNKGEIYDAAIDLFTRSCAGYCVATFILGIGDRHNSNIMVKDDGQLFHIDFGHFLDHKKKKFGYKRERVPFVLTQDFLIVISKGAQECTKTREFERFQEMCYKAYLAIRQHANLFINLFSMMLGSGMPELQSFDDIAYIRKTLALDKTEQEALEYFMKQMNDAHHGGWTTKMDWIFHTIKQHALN

Examples from the recorded data:
{"columns": ["Compound", "Assay readout", "Result"],
 "data": [
  ["CCc1nc2ccccc2n1-c1nc(N2CCOCC2)c2nc(OC3CCN(C4CCC(O)CC4)CC3)n(C)c2n1 (single isomer, unassigned)", "Ki p110 alpha/ Ki p110 delta", 151],
  ["CCc1nc2ccccc2n1-c1nc(N2CCOCC2)c2nc(OC3CN(C(=O)[C@H](C)O)C3)n(C)c2n1", "Ki p110 alpha/ Ki p110 delta", 87],
  ["CO[C@@H](C)c1nc2ccccc2n1-c1nc(N2CCOCC2)c2nc(OC3CN(C(=O)C(C)C)C3)n(C)c2n1", "Ki p110 alpha/ Ki p110 delta", 54],
  ["Cn1c(OC2CN(C3CCS(=O)(=O)CC3)C2)nc2c(N3CCOCC3)nc(-n3c(CCO)nc4ccccc43)nc21", "Ki p110 alpha/ Ki p110 delta", 90],
  ["CCc1nc2ccccc2n1-c1nc(N2CCOCC2)c2nc(OC3CN(C(=O)[C@H](C)OC)C3)n(C)c2n1", "Ki p110 alpha/ Ki p110 delta", 93]
]}

Now for a further compound.
In: Quick one: Ki p110 alpha/ Ki p110 delta for CCc1nc2ccccc2n1-c1nc(N2CCOCC2)c2nc(OC3CCN(C(=O)C(C)(C)C)CC3)n(C)c2n1 ?
Out: 178

====

Recorded log10 of Ki values for a group of compounds are listed next.
target: p110 delta (Homo sapiens); construct: Dundee, UK; test: PI3K isoform inhibition assay (fluorescence polarization), p110 delta; details: Ki apparent, Morrison equation; 25 μM ATP, 10 μM PIP2
Use the decimal logarithm of Ki (nM).

Examples from the recorded data:
{"columns": ["Compound", "Result"],
 "data": [
  ["CCc1nc2ccccc2n1-c1nc(N2CCOCC2)c2nc(OC3CN(C4CC[S+]([O-])CC4)C3)n(C)c2n1 (single isomer, unassigned) [Compound 123]", -0.18],
  ["CO[C@@H](C)c1nc2ccccc2n1-c1nc(N2CCOCC2)c2nc(OC3CN(C4CCS(=O)(=O)CC4)C3)n(C)c2n1 [Compound 143]", 0.20]
]}

In: Lab request: please report log10 of Ki under test system p110 delta (Homo sapiens) for CCc1nc2ccccc2n1-c1nc(N2CCOCC2)c2nc(OC3CCN(C4CCC(O)CC4)CC3)n(C)c2n1 (single isomer, unassigned) [Compound 130]
Out: -0.23

In: Lab request: please report log10 of Ki under test system p110 delta (Homo sapiens) for CCc1nc2ccccc2n1-c1nc(N2CCOCC2)c2nc(OC3CCNCC3)n(C)c2n1 [Compound 124]
Out: -0.04

In: Lab request: please report log10 of Ki under test system p110 delta (Homo sapiens) for Cn1c(OC2CN(C3CCS(=O)(=O)CC3)C2)nc2c(N3CCOCC3)nc(-n3c(CCO)nc4ccccc43)nc21 [Compound 136]
Out: 0.69

In: Lab request: please report log10 of Ki under test system p110 delta (Homo sapiens) for CC(C)C(=O)N1CC(Oc2nc3c(N4CCOCC4)nc(-n4c(C(C)(F)F)nc5ccccc54)nc3n2C)C1 [Compound 132]
Out: -0.03

In: Lab request: please report log10 of Ki under test system p110 delta (Homo sapiens) for CCc1nc2ccccc2n1-c1nc(N2CCOCC2)c2nc(OC3CN(C(=O)C(C)C)C3C)n(C)c2n1 (stereo not shown) [Compound 149]
Out: -0.35

====

biological target: p110 delta (Homo sapiens, UniProt O00329); construct: Dundee, UK; test: PI3K isoform inhibition assay (fluorescence polarization), p110 delta; conditions: Ki apparent, Morrison equation; 25 μM ATP, 10 μM PIP2
Sequence (O00329 whole entry, canonical isoform): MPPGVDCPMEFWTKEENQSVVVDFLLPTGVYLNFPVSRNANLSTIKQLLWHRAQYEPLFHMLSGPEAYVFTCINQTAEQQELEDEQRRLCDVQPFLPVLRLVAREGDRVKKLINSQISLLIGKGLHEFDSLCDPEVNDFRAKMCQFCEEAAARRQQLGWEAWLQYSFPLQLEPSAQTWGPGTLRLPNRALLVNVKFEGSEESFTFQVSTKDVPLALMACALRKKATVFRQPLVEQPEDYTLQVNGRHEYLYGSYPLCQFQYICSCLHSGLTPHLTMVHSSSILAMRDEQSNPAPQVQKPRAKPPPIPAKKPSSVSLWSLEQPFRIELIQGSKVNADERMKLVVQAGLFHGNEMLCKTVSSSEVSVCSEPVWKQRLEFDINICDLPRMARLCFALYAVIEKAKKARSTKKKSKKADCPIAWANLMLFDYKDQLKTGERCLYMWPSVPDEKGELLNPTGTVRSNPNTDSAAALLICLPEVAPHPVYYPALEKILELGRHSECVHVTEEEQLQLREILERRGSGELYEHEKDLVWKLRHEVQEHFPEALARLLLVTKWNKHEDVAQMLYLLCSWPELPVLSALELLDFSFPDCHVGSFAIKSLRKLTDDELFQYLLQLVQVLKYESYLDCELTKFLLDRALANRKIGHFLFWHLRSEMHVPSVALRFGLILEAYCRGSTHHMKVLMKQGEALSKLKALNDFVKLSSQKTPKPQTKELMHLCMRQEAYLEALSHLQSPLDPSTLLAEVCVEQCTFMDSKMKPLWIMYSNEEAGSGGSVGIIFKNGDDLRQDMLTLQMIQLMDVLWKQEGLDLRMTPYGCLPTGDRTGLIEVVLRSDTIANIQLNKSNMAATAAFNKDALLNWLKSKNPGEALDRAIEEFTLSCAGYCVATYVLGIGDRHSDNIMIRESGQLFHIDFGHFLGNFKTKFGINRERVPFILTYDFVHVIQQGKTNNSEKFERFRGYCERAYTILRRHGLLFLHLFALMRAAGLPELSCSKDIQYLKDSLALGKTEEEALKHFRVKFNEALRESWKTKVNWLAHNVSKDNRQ
Sequence (P27986 whole entry partner, canonical isoform): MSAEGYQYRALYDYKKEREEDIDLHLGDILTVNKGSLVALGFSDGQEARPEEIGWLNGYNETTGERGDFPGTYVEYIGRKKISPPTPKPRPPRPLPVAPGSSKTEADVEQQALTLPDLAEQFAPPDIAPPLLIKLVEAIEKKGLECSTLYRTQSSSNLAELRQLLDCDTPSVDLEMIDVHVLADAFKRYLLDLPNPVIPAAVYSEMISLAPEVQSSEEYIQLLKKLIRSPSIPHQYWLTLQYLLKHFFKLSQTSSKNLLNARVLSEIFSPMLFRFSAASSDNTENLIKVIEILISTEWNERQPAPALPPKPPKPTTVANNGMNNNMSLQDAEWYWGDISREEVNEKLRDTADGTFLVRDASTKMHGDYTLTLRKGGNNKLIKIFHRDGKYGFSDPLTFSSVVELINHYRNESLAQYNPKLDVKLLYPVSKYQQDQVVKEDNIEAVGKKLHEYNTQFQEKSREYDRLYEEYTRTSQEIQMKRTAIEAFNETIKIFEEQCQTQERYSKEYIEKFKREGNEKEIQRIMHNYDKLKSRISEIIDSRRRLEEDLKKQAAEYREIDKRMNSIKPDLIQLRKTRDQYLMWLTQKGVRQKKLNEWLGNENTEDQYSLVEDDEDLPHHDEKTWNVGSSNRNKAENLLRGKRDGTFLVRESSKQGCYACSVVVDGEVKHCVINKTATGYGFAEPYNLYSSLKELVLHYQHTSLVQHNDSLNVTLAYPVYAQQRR
Recorded pKi values for a group of molecules are listed next.
Note on units: pKi is unitless, being -log10 of a concentration expressed in mol/L.

Examples from the recorded data:
{"columns": ["Molecule", "pKi"],
 "data": [
  ["CC(C)C(=O)N1CC(Oc2nc3c(N4CCOCC4)nc(-c4c(F)ccc5[nH]ccc45)nc3n2C)C1", 9.00],
  ["CCc1nc2ccccc2n1-c1nc(N2CCOCC2)c2nc(OC3CN(C(=O)C4C[C@H]4F)C3)n(C)c2n1 (stereo partly shown)", 9.24],
  ["Cc1nc2ccccc2n1-c1nc(N2CCOCC2)c2nc(OC3CCN(C4CCOCC4)CC3)n(C)c2n1", 9.60],
  ["CC(C)c1nc2ccccc2n1-c1nc(N2CCOCC2)c2nc(OC3CN(C4CCS(=O)(=O)CC4)C3)n(C)c2n1", 9.33],
  ["CCc1nc2ccccc2n1-c1nc(N2CCOCC2)c2nc(OC3CNC3)n(C)c2n1", 8.07],
  ["CCc1nc2ccccc2n1-c1nc(N2CCOCC2)c2nc(OC3CN(C(=O)[C@@H]4CC45CCC5)C3)n(C)c2n1", 9.13]
]}

Now for a further molecule.
In: Quick one: pKi for CC(C)C(=O)N1CC(Oc2nc3c(N4CCOCC4)nc(-n4c(N(C)C)nc5ccccc54)nc3n2C)C1 ?
Out: 8.44

====

Biological target: p110 alpha (Homo sapiens)
Construct: purchased Upstate Group, Millipore; Dundee, UK
Assay: PI3K isoform inhibition assay (fluorescence polarization), p110 alpha
Assay type: biochemical
Settings: delta/alpha selectivity ratio
Experimental: Determination of the activity of PI3 kinase activity of Formula I compounds is possible by a number of direct and indirect detection methods. PI3K enzymatic activity was assayed by measuring the amount of product phosphatidylinositol 3,4,5-phosphate (PIP3) formed from substrate 4,5 phosphatidylinositol 4,5-phosphate (PIP2) using a fluorescence polarization displacement assay. […]
We label by threshold. Values of Ki p110 alpha/ Ki p110 delta strictly beneath 100 are Fulfilled. Values of 100 and up are Not fulfilled.

{"columns": ["Compound", "Class label"],
 "data": [
  ["CCc1nc2ccccc2n1-c1nc(N2CCOCC2)c2nc(OC3CCN(C(=O)C(C)(C)O)CC3)n(C)c2n1", "Not fulfilled"]
]}

In: API: query returns whether the compound falls strictly under 100 in Ki p110 alpha/ Ki p110 delta. Query: CC(C)c1nc2ccccc2n1-c1nc(N2CCOCC2)c2nc(OC3CN(CC(C)(C)O)C3)n(C)c2n1
Out: Fulfilled

In: API: query returns whether the compound falls strictly under 100 in Ki p110 alpha/ Ki p110 delta. Query: CCc1nc2ccccc2n1-c1nc(N2CCOCC2)c2nc(OC3CN(C(=O)[C@@H]4CC45CCC5)C3)n(C)c2n1
Out: Not fulfilled

In: API: query returns whether the compound falls strictly under 100 in Ki p110 alpha/ Ki p110 delta. Query: CCc1nc2ccccc2n1-c1nc(N2CCOCC2)c2nc(OC3CN(C4CCOCC4)C3)n(C)c2n1
Out: Not fulfilled

In: API: query returns whether the compound falls strictly under 100 in Ki p110 alpha/ Ki p110 delta. Query: CC(C)c1nc2ccccc2n1-c1nc(N2CCOCC2)c2nc(OC3CN(C4CCS(=O)(=O)CC4)C3)n(C)c2n1
Out: Not fulfilled

In: API: query returns whether the compound falls strictly under 100 in Ki p110 alpha/ Ki p110 delta. Query: CCc1nc2ccccc2n1-c1nc(N2CCOCC2)c2nc(OC3CNC3)n(C)c2n1
Out: Fulfilled

In: API: query returns whether the compound falls strictly under 100 in Ki p110 alpha/ Ki p110 delta. Query: CCc1nc2ccccc2n1-c1nc(N2CCOCC2)c2nc(OC3CN(C(=O)C(C)(C)CO)C3)n(C)c2n1
Out: Not fulfilled

In: API: query returns whether the compound falls strictly under 100 in Ki p110 alpha/ Ki p110 delta. Query: CCc1nc2ccccc2n1-c1nc(N2CCOCC2)c2nc(OC3CN(C(=O)C4CC4)C3C)n(C)c2n1 (stereo not drawn)
Out: Not fulfilled

In: API: query returns whether the compound falls strictly under 100 in Ki p110 alpha/ Ki p110 delta. Query: CCc1nc2ccccc2n1-c1nc(N2CCOCC2)c2nc(OC3CN(C(=O)C4(F)CC4)C3)n(C)c2n1
Out: Fulfilled

In: API: query returns whether the compound falls strictly under 100 in Ki p110 alpha/ Ki p110 delta. Query: CCc1nc2ccccc2n1-c1nc(N2CCOCC2)c2nc(OC3CCN(C(=O)C(C)C)CC3)n(C)c2n1
Out: Not fulfilled

In: API: query returns whether the compound falls strictly under 100 in Ki p110 alpha/ Ki p110 delta. Query: CCc1nc2ccccc2n1-c1nc(N2CCOCC2)c2nc(OC3CN(C(=O)C(C)(C)O)C3)n(C)c2n1
Out: Fulfilled

In: API: query returns whether the compound falls strictly under 100 in Ki p110 alpha/ Ki p110 delta. Query: CCc1nc2ccccc2n1-c1nc(N2CCOCC2)c2nc(OC3CN(C(=O)C4CC4)C3)n(C)c2n1
Out: Not fulfilled

In: API: query returns whether the compound falls strictly under 100 in Ki p110 alpha/ Ki p110 delta. Query: Cn1c(OC2CCN(C3CCOCC3)CC2)nc2c(N3CCOCC3)nc(-c3c(F)ccc4[nH]ccc34)nc21
Out: Not fulfilled

In: API: query returns whether the compound falls strictly under 100 in Ki p110 alpha/ Ki p110 delta. Query: CN(C)c1nc2ccccc2n1-c1nc(N2CCOCC2)c2nc(OC3CN(C4CCS(=O)(=O)CC4)C3)n(C)c2n1
Out: Not fulfilled
